The reported numbers originate from patent US20250043299A1.

A collection of compounds and their measured IC50
Target: Arabidopsis thaliana DHS3 (AtDHS3), wild type (DHS3^WT), SEQ ID NO:3 (Arabidopsis thaliana)
Sequence (Q9SK84 entry or part of it): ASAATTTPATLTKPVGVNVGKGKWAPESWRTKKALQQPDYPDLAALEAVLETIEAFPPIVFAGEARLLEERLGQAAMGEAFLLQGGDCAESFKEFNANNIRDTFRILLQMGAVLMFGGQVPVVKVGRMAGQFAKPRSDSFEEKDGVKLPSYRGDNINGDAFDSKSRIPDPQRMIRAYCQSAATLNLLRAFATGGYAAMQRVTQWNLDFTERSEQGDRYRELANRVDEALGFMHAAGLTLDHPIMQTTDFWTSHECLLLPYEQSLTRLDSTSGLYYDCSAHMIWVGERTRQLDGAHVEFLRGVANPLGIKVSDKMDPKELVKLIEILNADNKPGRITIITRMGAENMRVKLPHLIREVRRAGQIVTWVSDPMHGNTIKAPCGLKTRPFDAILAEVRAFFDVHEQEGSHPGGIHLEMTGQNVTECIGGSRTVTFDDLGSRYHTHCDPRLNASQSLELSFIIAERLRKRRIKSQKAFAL
Assay: DHS enzyme assay with effector, Arabidopsis DHS3 WT
Assay type: biochemical
Conditions: DHS3^WT; 4 mM E4P, 4 mM PEP, pH 7.4, 37° C.; read-out: IC50
OUTCOME MEASURE: IC50 (µM)

> print(dat)
                                   compound  experimental.value
1  O=C(O)C(=O)Cc1c[nH]c2ccccc12 [IPA, indole-3-pyruvate]                25.3
2  O=C(O)C(=O)Cc1ccc(O)cc1 [HPP, 4-Hydroxyphenylpyruvate]                 516
